Biological target: GNA13; also: test concentration or dose not given here
Conditions: ASO
These antisense oligonucleotides have a phosphorothioate backbone; sugars and methylation of C are not fully specified.
OBSERVATION TYPE: remaining target (mRNA or protein) (fraction of control)
Give your answer as a number; write no unit.

TGTTCAGAGACTCTGTAA	0.47
GTTTCCTTTCTGATCTCT	0.35
GAAATAGTCTTTGATGCT	0.61
ATGTTCTCCGTGTTGATA	0.67
GCGCTGGTCGAAGTCCTG	0.7

Tested on GNA13, the item ACCCAGTTGAAATTCTCG showed remaining target (mRNA or protein) (fraction of control) equal to 0.43

Noted remaining target (mRNA or protein) (fraction of control) for CATAAGCACCTGGTCAAA , tested on GNA13: 0.1

For AGTGGTGAAGTGGTGGTA on GNA13, measured remaining target (mRNA or protein) (fraction of control) was 0.43
